# cell viability values compiled below
# System: SEM cells
# testMethodNotes: cell viability relative to DMSO control; higher = less cytotoxic
# runParameters: RPMI 5 mM glucose + 10% dialyzed FBS; 48 h; 1.71 µM
Use % as the unit, but write only the number.

CC1=C(C)C(=O)C(C(CCCCCC(=O)O)c2ccccc2)=C(C)C1=O (stereo not drawn) = 76.6
NC1=C(Cl)C(=CC=N1)OC2=C(F)C=C(NC(=O)\C3=C\N\C=C(C3=O)\C4=CC=C(F)C=C4)C=C2 = 59.5
CN[C@H]1CCC2=CC(=C(OC)C(=C2C/3=C/C=C(OC)\C(=O)/C=C13)OC)OC = 12.6
CCN1CCN(CC1)CC(=O)NC2=CC=C(C3=C2C4=C(S3)C=CC=C4)C5=C6O\C(=C/C(=O)C6=CC=C5)N7CCOCC7 = 71.3
FC1=C(C=C(C\C2=N\NC(=O)C3=C2C=CC=C3)C=C1)C(=O)N4CCN(CC4)C(=O)C5CC5 = 78.2

Measured cell viability, COCC1(CO)C(=O)C2CCN1CC2 (stereo not drawn) : 90.6

Measured cell viability, CNc1nc(Nc2ccc(C(=O)N3CCOCC3)cc2OC)ncc1Cl : 114

Measured cell viability, O=C(Nc1cccc(C(F)(F)F)c1)Nc1cc([S+](=O)([O-])NC2CC2)ccc1-c1ccsc1 : 83.4

Measured cell viability, COCCOc1ccc2c(c1)ncn2-c1ccc2cccc(N3CCC(N)CC3)c2n1 : 41.8

Measured cell viability, CC[C@H](NC1=C2N=C[NH]C2=NC=N1)C/3=N/C4=C(C(=CC=C4)F)C(=O)N3C5=CC=CC=C5 : 110

---

# System: P12-Ichikawa
# testMethodNotes: cell viability relative to DMSO control; higher = less cytotoxic
# runParameters: HPLM + 10% dialyzed FBS; 48 h; 0.569 µM
# cell viability values compiled below
Use % as the unit, but write only the number.

// worked examples, cell viability included
COc1ccccc1OCC(O)COC(N)=O (stereo unspecified) = 111
CC(C)CNc1ccnc(NCc2csc(-c3ccccc3)n2)n1 = 127
COc1cc(F)c(F)c(Nc2ccc(I)cc2F)c1N[S+](=O)([O-])C1(C[C@H](O)CO)CC1 = 110
Clc1ccc(-c2nc3sccn3c2/C=N/OCc2ccc(Cl)c(Cl)c2)cc1 = 104
CC1(C)O[C@@H]2C[C@H]3[C@@H]4C[C@H](F)C5=CC(=O)C=C[C@]5(C)[C@@]4(F)[C@@H](O)C[C@]3(C)[C@]2(C(=O)CO)O1 = 69.1
O=C(O)C1(Cc2cccc(Nc3nccs3)n2)CCC(Oc2cccc(Cl)c2F)CC1 (stereo unspecified) = 99.5
CNC(=O)c1ccc2cc(C3(O)CCn4cncc43)ccc2c1 (stereo unspecified) = 102
CN[C@@H](C)[C@H]1[C@H](O)C[C@@]2(C)[C@@H]3CC[C@H]4C(C)(C)[C@@H](NC)CC[C@@]45C[C@@]35CC[C@]12C = 98.8
Cc1c(C)n(Cc2ccc(-c3ccccc3C(=O)O)cc2)c2ccc(C(=O)N[C@@H](C)c3ccc([N+](=O)[O-])cc3)cc12 = 109
N[S+]([O-])(=O)C1=CC=C(NC/2=C/C(=O)C3=CC=CC=C3C2=O)C=C1 = 123

Please examine the following record next.
Field cell viability (system: P12-Ichikawa) for entry CNCCCC12CCC(c3ccccc31)c1ccccc12 = 95.8

---

# AUC of viability dose-response curve values compiled below
# Test system: NOMO1
# testMethodNotes: AUC of viability dose-response curve (% viability x log10 dose units); higher = less sensitive
# runParameters: RPMI 5 mM glucose + 10% dialyzed FBS; 48 h
I only need the number, thanks.

O=C(O)Cn1nnc(-c2cc(N3CCC(Oc4cc(F)ccc4Br)CC3)no2)n1 = 361
COc1ccc(-c2ccc3c(N4CCOCC4)nc(N4C[C@@H](C)O[C@@H](C)C4)nc3n2)cc1CO = 353
COCCOc1ccc2c(c1)ncn2-c1ccc2cccc(N3CCC(N)CC3)c2n1 = 405
C[C@](Cc1c[nH]c2ccccc12)(NC(=O)OC1C2CC3CC(C2)CC1C3)C(=O)NC[C@H](NC(=O)CCC(=O)O)c1ccccc1 (stereo not given in full) = 435
CC[C@H](/C=C/[C@@H](C)[C@H]1CC[C@H]2[C@@H]3CC=C4C[C@@H](O)CC[C@]4(C)[C@H]3CC[C@]12C)C(C)C = 421
CC(=O)O[C@@]1(CC[C@H]2[C@@H]3\C=C(Cl)/C4=C/C(=O)[C@@H]5C[C@@H]5[C@]4(C)[C@H]3CC[C@]12C)C(C)=O = 360
CC1=C(C)C(=O)C(C(CCCCCC(=O)O)c2ccccc2)=C(C)C1=O (stereo not given) = 318
CNCC(O)c1ccc(O)cc1 (stereo not given) = 441

Measured AUC of viability dose-response curve, N[S+]([O-])(=O)C1=CC=C(NC/2=C/C(=O)C3=CC=CC=C3C2=O)C=C1 : 461

Measured AUC of viability dose-response curve, ClC1=CC=C(C=C1)C(C#N)C2=C(Cl)C=C(C=C2Cl)N3\N=C/C(=O)NC3=O (stereo not given) : 455

---

# Tested on: P12-Ichikawa
# testMethodNotes: cell viability relative to DMSO control; higher = less cytotoxic
# runParameters: HPLM + 10% dialyzed FBS; 48 h; 0.19 µM
# cell viability values compiled below
Use % as the unit, but write only the number.

CC(C)(C)OC(=O)N[C@H]1CCCCC/C=C\[C@@H]2C[C@@]2(C(=O)N[S+](=O)([O-])C2CC2)NC(=O)[C@@H]2C[C@@H](OC(=O)N3Cc4cccc(F)c4C3)CN2C1=O = 114

Measured cell viability, CN[C@@H](C)[C@H]1[C@H](O)C[C@@]2(C)[C@@H]3CC[C@H]4C(C)(C)[C@@H](NC)CC[C@@]45C[C@@]35CC[C@]12C : 100

Measured cell viability, CNCCCC12CCC(c3ccccc31)c1ccccc12 : 96.2

Measured cell viability, CC1CNc2c(cccc2[S+](=O)([O-])N[C@@H](CCCNC(=N)N)C(=O)N2CC[C@@H](C)C[C@@H]2C(=O)O)C1 (some centres not stated) : 118

Measured cell viability, CC[C@H](NC1=C2N=C[NH]C2=NC=N1)C/3=N/C4=C(C(=CC=C4)F)C(=O)N3C5=CC=CC=C5 : 120

Measured cell viability, CNCC(O)c1ccc(O)cc1 (configuration not stated) : 122

Measured cell viability, CCC1(c2ccccc2)C(=O)NCNC1=O : 118

Measured cell viability, CC(C)c1nc(CN(C)C(=O)N[C@H](C(=O)N[C@@H](Cc2ccccc2)C[C@H](O)[C@H](Cc2ccccc2)NC(=O)OCc2cncs2)C(C)C)cs1 : 92.1

Measured cell viability, O=c1[nH]c(=O)n([C@H]2C[C@H](O)[C@@H](CO)O2)cc1/C=C/Br : 61.2

Measured cell viability, COc1cc(F)c(F)c(Nc2ccc(I)cc2F)c1N[S+](=O)([O-])C1(C[C@H](O)CO)CC1 : 112

Measured cell viability, N[S+]([O-])(=O)C1=CC=C(NC/2=C/C(=O)C3=CC=CC=C3C2=O)C=C1 : 120

Measured cell viability, FC1=C(C=C(C\C2=N\NC(=O)C3=C2C=CC=C3)C=C1)C(=O)N4CCN(CC4)C(=O)C5CC5 : 87.4

Measured cell viability, ClC1=CC=C(C=C1)C(C#N)C2=C(Cl)C=C(C=C2Cl)N3\N=C/C(=O)NC3=O (configuration not stated) : 115

Measured cell viability, C[S+](=O)([O-])Nc1ccc([N+](=O)[O-])cc1Oc1ccccc1 : 115

Measured cell viability, CN[C@H]1CCC2=CC(=C(OC)C(=C2C/3=C/C=C(OC)\C(=O)/C=C13)OC)OC : 11.1

Measured cell viability, C[C@H]1C[C@@H]2[C@H](CC[C@@]3(C)[C@H]2CC[C@]3(OC(C)=O)C(C)=O)[C@@]\4(C)CCC(=O)\C=C14 : 115

Measured cell viability, C[C@@H](Oc1cc(-c2cnn(C3CCNCC3)c2)cnc1N)c1c(Cl)ccc(F)c1Cl : 120

---

# Test system: SEM cells
# testMethodNotes: cell viability relative to DMSO control; higher = less cytotoxic
# runParameters: RPMI 5 mM glucose + 10% FBS; 48 h; 1.71 µM
assayMetric: cell viability (%)
Use % as the unit, but write only the number.

O=C1c2ccccc2-[n+]2ccc3c([nH]c4ccccc43)c21 = 59.6

Field cell viability (system: SEM cells) for entry FC1=C(C=C(C\C2=N\NC(=O)C3=C2C=CC=C3)C=C1)C(=O)N4CCN(CC4)C(=O)C5CC5 = 87.1

Field cell viability (system: SEM cells) for entry COCC1(CO)C(=O)C2CCN1CC2 (centres undefined) = 111

Field cell viability (system: SEM cells) for entry c1ccc(CCCN2CCN(CCOC(c3ccccc3)c3ccccc3)CC2)cc1 = 89

Field cell viability (system: SEM cells) for entry CNC(=O)c1c(-c2ccc(F)cc2)oc2cc(N(CCO)[S+](C)(=O)[O-])c(C3CC3)cc12 = 31.5

Field cell viability (system: SEM cells) for entry CC(C)(C)OC(=O)N[C@H]1CCCCC/C=C\[C@@H]2C[C@@]2(C(=O)N[S+](=O)([O-])C2CC2)NC(=O)[C@@H]2C[C@@H](OC(=O)N3Cc4cccc(F)c4C3)CN2C1=O = 103

Field cell viability (system: SEM cells) for entry CC(C)(C)NC(=O)Nc1cccc(Nc2ncc(F)c(NC(C)(C)CO)n2)c1 = 102

Field cell viability (system: SEM cells) for entry OC[C@@H](O)[C@@H](O)[C@H](O)[C@@H](O)CO = 110

Field cell viability (system: SEM cells) for entry C=C1/C(=C\C=C2/CCC[C@]3(C)[C@@H]([C@H](C)CCCC(C)(C)O)CC[C@@H]23)C[C@@H](O)C[C@@H]1O = 113

Data origin: the supplement of paper PMC11451515
